// data source = patent US20110172168A1

Molecular target: T1, CEA-derived … (SEQ ID NO: 71)-HLA-A*0201 complex (biotin on the C-terminal biotinylation tag (enzymatic, BirA))
T1 construct: also called soluble biotinylated HLA-A2-peptide complex; not shown: C-terminal biotinylation tag that replaces the transmembrane and cytoplasmic domains
Test: Biacore SPR, pMHC immobilised
koff for assorted binders
measured.endpoint: koff

binder="SEQ ID NO 9 (receptor) MAGHLPKPTLWAEPGSVITMDQPVTLRCQGGQETQEYRLYREKKTAPWITRIPQELVKKGQFPIPSITWEHAGRYRCYYGSDTSQWSASSDPLELVVTGVYIKPTLSAQPSPVVNSGGNVTLQCDSQVAFDGFILCKEGEDEHPQCLNSQPHARGSSRAIFSVGPVSPSRRWWYRCYAYMNWAPYEWSLPSDLLELDVDG" measured_endpoint=koff obs_value="≤ 2 s⁻¹"
binder="SEQ ID NO 16 (receptor) MAQHLPKPTLWAEPGSVITMDQPVTLRCQGGQETQEYRLYREKKTAPWITRIPQELVKKGQFPIPSITWEHAGRYRCYYGSDTSQWSASSDPLELVVTGVYIKPTLSAQPSPVVNSGGNVTLQCDSQVTFDGFILCKEGEDEHPQCLNSQPHARGSSRAIFSVGPVSPSRRWWYRCYAYDSNSPYEWSLPSDLLELDVDG" measured_endpoint=koff obs_value="≤ 2 s⁻¹"
